Assay: Half-lives and pharmacokinetic parameters of polypeptides vs HM-1
Settings: in vivo; read-out: AUC0-∞
Peptide text beside a SMILES is read from it. * marks the point of attachment. Hexanoyl(6-maleimido) = O=C1C=CC(=O)N1CCCCCC(=O)*; X38 = O=C1C=CC(=O)N1CCOCC(=O)*
reported.metric: AUC(0-inf) (ng·h/mL)
Numbers only, in ng·h/mL.

Examples from the recorded data:
C[C@H](NC(=O)CNC(=O)[C@H](CCCNC(=N)N)NC(=O)CCCCCN1C(=O)C=CC1=O)C(=O)N[C@@H](CC(=O)O)C(=O)N[C@@H](CCCNC(=N)N)C(=O)N[C@@H](C)C(=O)N[C@@H](CCC(=O)O)C(=O)N[C@@H](C)C(=O)N[C@@H](C)C(=O)N[C@@H](C)C(=O)N[C@@H](CCCCN)C(=O)N[C@@H](CCCNC(=N)N)C(=O)NCC(=O)N[C@@H](CC(=O)O)C(=O)O [P12] ({Hexanoyl(6-maleimido)}-RGADRAEAAAKRGD-OH; C-terminus assumed): 34000
C[C@H](NC(=O)[C@H](CCCNC(=N)N)NC(=O)[C@H](CC(=O)O)NC(=O)CNC(=O)[C@H](CCCNC(=N)N)NC(=O)CCCCCN1C(=O)C=CC1=O)C(=O)NCC(=O)NCC(=O)NCC(=O)NCC(=O)N[C@@H](CCCNC(=N)N)C(=O)NCC(=O)N[C@@H](CC(=O)O)C(=O)O [P8] ({Hexanoyl(6-maleimido)}-RGDRAGGGGRGD-OH; C-terminus assumed): 31200

Kindly consider the entry below.
Task item: Answer with the recorded AUC(0-inf) of C[C@H](NC(=O)CNC(=O)[C@H](CCCNC(=N)N)NC(=O)COCCN1C(=O)C=CC1=O)C(=O)N[C@@H](CC(=O)O)C(=O)N[C@@H](CCCNC(=N)N)C(=O)N[C@@H](C)C(=O)NCC(=O)NCC(=O)NCC(=O)NCC(=O)N[C@@H](CCCNC(=N)N)C(=O)NCC(=O)N[C@@H](CC(=O)O)C(=O)O [X49] (X38-RGADRAGGGGRGD-OH) only.
Reply: 28500

###

Test system: human retinal capillary endothelial cells (HRCECs)
Test: MTT proliferation inhibition on HRCECs
Type: cell-based
Details: 48 h, dose 0.2 μM
Marks after values point to notes of the source that are not given here. Peptide text beside a SMILES is read from it. * marks the point of attachment. X84 = O=C1C=CC(=O)N1c1ccccc1CCCCCCCCCCCCC(=O)*; X49 = O=C1C=CC(=O)N1c1ccccc1CCCCCC(=O)*
reported.metric: Inhibition rate (%)
The answer consists of two parts: a number and, after it, its unit.

C[C@H](NC(=O)CNC(=O)[C@H](CCCNC(=N)N)NC(=O)CCCCCCCCCCCCc1ccccc1N1C(=O)C=CC1=O)C(=O)N[C@@H](CC(=O)O)C(=O)N[C@@H](CCCNC(=N)N)C(=O)N[C@@H](C)C(=O)NCC(=O)NCC(=O)NCC(=O)NCC(=O)N[C@@H](CCCNC(=N)N)C(=O)NCC(=O)N[C@@H](CC(=O)O)C(=O)O [X24] (X84-RGADRAGGGGRGD-OH): 49.60%*

Now consider the entry below.
Task item: Using known records, supply Inhibition rate (%) for C[C@H](NC(=O)CNC(=O)[C@H](CCCNC(=N)N)NC(=O)CCCCCc1ccccc1N1C(=O)C=CC1=O)C(=O)N[C@@H](CC(=O)O)C(=O)N[C@@H](CCCNC(=N)N)C(=O)N[C@@H](C)C(=O)NCC(=O)NCC(=O)NCC(=O)NCC(=O)N[C@@H](CCCNC(=N)N)C(=O)NCC(=O)N[C@@H](CC(=O)O)C(=O)O [X17] (X49-RGADRAGGGGRGD-OH)
Reply: 65.08%*
